- MEASURED ON: T1, Fc Receptor-like 5 (FcRL5), full length, overexpressed on 3T3 or Raji cells (human, UniProt Q96RD9 16-977)
- T1 construct: also called 3T3-FcRL5
- T1 sequence: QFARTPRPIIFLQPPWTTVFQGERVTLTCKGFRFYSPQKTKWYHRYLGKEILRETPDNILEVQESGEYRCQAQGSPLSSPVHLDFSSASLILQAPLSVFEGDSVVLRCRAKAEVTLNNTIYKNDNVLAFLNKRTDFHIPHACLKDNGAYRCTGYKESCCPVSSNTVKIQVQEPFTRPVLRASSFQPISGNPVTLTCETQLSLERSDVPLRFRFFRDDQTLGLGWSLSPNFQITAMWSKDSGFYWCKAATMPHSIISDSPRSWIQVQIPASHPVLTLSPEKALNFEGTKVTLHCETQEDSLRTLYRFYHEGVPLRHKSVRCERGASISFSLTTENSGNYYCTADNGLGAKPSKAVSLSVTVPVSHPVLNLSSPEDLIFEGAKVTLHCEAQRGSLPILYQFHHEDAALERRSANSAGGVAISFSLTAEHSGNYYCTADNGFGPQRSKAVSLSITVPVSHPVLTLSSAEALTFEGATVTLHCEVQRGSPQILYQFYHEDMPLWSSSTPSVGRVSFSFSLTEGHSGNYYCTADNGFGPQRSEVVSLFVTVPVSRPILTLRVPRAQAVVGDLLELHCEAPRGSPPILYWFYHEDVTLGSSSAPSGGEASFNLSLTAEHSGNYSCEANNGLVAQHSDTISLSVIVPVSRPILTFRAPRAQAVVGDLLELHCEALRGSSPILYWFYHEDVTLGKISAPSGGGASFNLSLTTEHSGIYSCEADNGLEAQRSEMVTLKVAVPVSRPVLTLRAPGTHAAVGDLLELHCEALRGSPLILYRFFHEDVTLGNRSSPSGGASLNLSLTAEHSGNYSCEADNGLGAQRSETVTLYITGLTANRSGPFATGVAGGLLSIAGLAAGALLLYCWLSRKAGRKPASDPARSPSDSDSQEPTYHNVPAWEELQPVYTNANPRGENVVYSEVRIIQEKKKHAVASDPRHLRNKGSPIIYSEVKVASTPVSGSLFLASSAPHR
- PROTOCOL DESCRIPTION: phage clone screening on cells
VALUE TYPE: binding result

1) ET200-124 (scFv, screened as phage clone; entry is VL-linker-VH-His tag-HA tag) scFv: SYVLTQPPSVSVAPGKTARISCGGNDIGSKSVFWYQQRPGQAPVLVVYDDSDRPSGLPERFSGFNSGNTATLTISRVEAGDEADYYCQVWDSSSDHYVFGTGTKVTVLGSRGGGGSGGGGSGGGGSLEMAQVQLVESGGGLVQPGRSLRLSCAASGFTFDDYAMHWVRQAPGKGLEWVSGISWNSGSIGYADSVKGRFTISRDNAKNSLYLQMNSLRAEDTALYYCAKDITYGSGSYGAFDIWGQGTMVTVSSTSGQAGQHHHHHHGAYPYDVPDYAS: binds
